# Tested on: OF1 mice
# measurement.description: Maximal electroshock test (MES Test)
# Assay type: in vivo
# experimental.parameters: Mus musculus, po; 50 mg/kg, p.o., pre-treatment time −1 h; read-out: %-Protection
Please enter Fulfilled where responders at 50 mg/kg is greater than or equal to 60%, and Not fulfilled where it is lower.

Reference set, count: 4
CS(=O)(=O)Nn1c(=O)[nH]c2cc(C(F)(F)F)c(-n3cccc3)cc2c1=O
Not fulfilled
CCCCOC(=O)N(n1c(=O)[nH]c2cc(C(C)C)c(-c3ccnn3C)cc2c1=O)S(C)(=O)=O
Fulfilled
CCn1nccc1-c1cc2c(=O)n(N(C(=O)C(C)(C)C)S(C)(=O)=O)c(=O)[nH]c2cc1C(F)(F)F
Not fulfilled
CCn1nccc1-c1cc2c(=O)n(N(C(=O)OC)S(C)(=O)=O)c(=O)[nH]c2cc1C(F)(F)F
Not fulfilled

### Prompt Form field: responders at 50 mg/kg at least 60%? Entry: `CCC(=O)N(n1c(=O)[nH]c2cc(CC)c(-c3ccnn3CC)cc2c1=O)S(C)(=O)=O`
### Response Not fulfilled

### Prompt Form field: responders at 50 mg/kg at least 60%? Entry: `CCCCOC(=O)N(n1c(=O)[nH]c2cc(C(F)(F)F)c(-c3ccnn3CC)cc2c1=O)S(C)(=O)=O`
### Response Not fulfilled

### Prompt Form field: responders at 50 mg/kg at least 60%? Entry: `CCCCC(=O)N(n1c(=O)[nH]c2cc(C(F)(F)F)c([C@H]3CCCO3)cc2c1=O)S(C)(=O)=O`
### Response Not fulfilled

### Prompt Form field: responders at 50 mg/kg at least 60%? Entry: CCC(OC)c1cc2c(=O)n(N(C(C)=O)S(C)(=O)=O)c(=O)[nH]c2cc1C(F)(F)F (centres unmarked)
### Response Fulfilled

### Prompt Form field: responders at 50 mg/kg at least 60%? Entry: `CCCCOC(=O)N(n1c(=O)[nH]c2cc(C(F)(F)F)c([C@H]3CCCO3)cc2c1=O)S(C)(=O)=O`
### Response Not fulfilled

### Prompt Form field: responders at 50 mg/kg at least 60%? Entry: `CCCC(=O)N(n1c(=O)[nH]c2cc(C(F)(F)F)c(-n3ccnc3C)cc2c1=O)S(C)(=O)=O`
### Response Not fulfilled

### Prompt Form field: responders at 50 mg/kg at least 60%? Entry: `CCC(=O)N(n1c(=O)c2cc(-c3ccnn3C)c(C(C)C)cc2n(C(=O)CC)c1=O)S(C)(=O)=O`
### Response Fulfilled

### Prompt Form field: responders at 50 mg/kg at least 60%? Entry: CCC(O)c1cc2c(=O)n(NS(C)(=O)=O)c(=O)[nH]c2cc1C(F)(F)F (centres unmarked)
### Response Not fulfilled

### Prompt Form field: responders at 50 mg/kg at least 60%? Entry: `CCCC(=O)N(n1c(=O)[nH]c2cc(C(F)(F)F)c(-c3ccnn3C)cc2c1=O)S(C)(=O)=O`
### Response Fulfilled

### Prompt Form field: responders at 50 mg/kg at least 60%? Entry: `CCOC(=O)N(n1c(=O)[nH]c2cc(CC)c(-c3ccnn3C)cc2c1=O)S(C)(=O)=O`
### Response Fulfilled

### Prompt Form field: responders at 50 mg/kg at least 60%? Entry: `CCC(=O)N(n1c(=O)[nH]c2cc(CC)c(-c3ccnn3C)cc2c1=O)S(C)(=O)=O`
### Response Fulfilled

### Prompt Form field: responders at 50 mg/kg at least 60%? Entry: `CCC(=O)N(n1c(=O)[nH]c2cc(C(C)C)c(-c3ccnn3C)cc2c1=O)S(C)(=O)=O`
### Response Fulfilled

### Prompt Form field: responders at 50 mg/kg at least 60%? Entry: `COC(=O)N(n1c(=O)[nH]c2cc(C(F)(F)F)c(-c3ccnn3C)cc2c1=O)S(C)(=O)=O`
### Response Fulfilled

### Prompt Form field: responders at 50 mg/kg at least 60%? Entry: CCC(OC)c1cc2c(=O)n(NS(C)(=O)=O)c(=O)[nH]c2cc1C(F)(F)F (centres unmarked)
### Response Fulfilled

### Prompt Form field: responders at 50 mg/kg at least 60%? Entry: `CC(C)c1cc2[nH]c(=O)n(N(C(=O)C(C)(C)C)S(C)(=O)=O)c(=O)c2cc1-c1ccnn1C`
### Response Not fulfilled

### Prompt Form field: responders at 50 mg/kg at least 60%? Entry: `CCCCCC(=O)N(n1c(=O)[nH]c2cc(C(F)(F)F)c(-n3ccnc3)cc2c1=O)S(C)(=O)=O`
### Response Not fulfilled

### Prompt Form field: responders at 50 mg/kg at least 60%? Entry: CCCOC(=O)N(n1c(=O)[nH]c2cc(C(F)(F)F)c(C(CC)OC)cc2c1=O)S(C)(=O)=O (centres unmarked)
### Response Not fulfilled

### Prompt Form field: responders at 50 mg/kg at least 60%? Entry: `COCCOC(=O)N(n1c(=O)[nH]c2cc(C(F)(F)F)c(-c3ccnn3C(C)C)cc2c1=O)S(C)(=O)=O`
### Response Not fulfilled

### Prompt Form field: responders at 50 mg/kg at least 60%? Entry: `CCc1cc2[nH]c(=O)n(N(C(=O)OCC(C)C)S(C)(=O)=O)c(=O)c2cc1-c1ccnn1CC`
### Response Not fulfilled

### Prompt Form field: responders at 50 mg/kg at least 60%? Entry: `CCCCC(=O)N(n1c(=O)[nH]c2cc(C(F)(F)F)c(-c3ccnn3C)cc2c1=O)S(C)(=O)=O`
### Response Not fulfilled

----------
# Test system: OF1 mice
# measurement.description: Maximal electroshock test (MES Test)
# Type: in vivo
# experimental.parameters: Mus musculus, po; 50 mg/kg, p.o., pre-treatment time −1 h; read-out: %-Protection
quantity.measured: responders at 50 mg/kg (%)
# output: bare number, implied unit %

Use these answered entries as a reference point.
CCCOC(=O)N(n1c(=O)[nH]c2cc(C(C)C)c(-c3ccnn3C)cc2c1=O)S(C)(=O)=O [Example 3.20]
100
CCCC(=O)N(n1c(=O)[nH]c2cc(C(F)(F)F)c([C@H]3CCCO3)cc2c1=O)S(C)(=O)=O [Example 10.03]
100
CCCCCC(=O)N(n1c(=O)[nH]c2cc(C(F)(F)F)c(-c3ccnn3C(C)C)cc2c1=O)S(C)(=O)=O [Example 5.04]
20

The record that follows has no responders at 50 mg/kg shown yet.
# responders at 50 mg/kg of CC(C)C(=O)N(n1c(=O)[nH]c2cc(C(F)(F)F)c(-n3ccnc3)cc2c1=O)S(C)(=O)=O [Example 4.05] = 80

----------
# System: OF1 mice
# measurement.description: Maximal electroshock test (MES Test)
# Type: in vivo
# experimental.parameters: Mus musculus, po; 50 mg/kg, p.o., pre-treatment time −1 h; read-out: %-Protection
Each item that follows carries a reported responders at 50 mg/kg.
# output: bare number, implied unit %

Use these answered entries as a reference point.
CCCOC(=O)N(n1c(=O)[nH]c2cc(C(F)(F)F)c(-c3ccnn3C(C)C)cc2c1=O)S(C)(=O)=O
40
CCCCC(=O)N(n1c(=O)[nH]c2cc(CC)c(-c3ccnn3C)cc2c1=O)S(C)(=O)=O
100
CC(C)COC(=O)N(n1c(=O)[nH]c2cc(C(F)(F)F)c(-c3ccnn3C(C)C)cc2c1=O)S(C)(=O)=O
40

Reading of responders at 50 mg/kg for `CCn1nccc1-c1cc2c(=O)n(N(C(=O)COC(C)=O)S(C)(=O)=O)c(=O)[nH]c2cc1C(F)F` with OF1 mice: 20

Reading of responders at 50 mg/kg for `CCCCC(=O)N(n1c(=O)[nH]c2cc(C(F)(F)F)c(-n3ccnc3)cc2c1=O)S(C)(=O)=O` with OF1 mice: 100

Reading of responders at 50 mg/kg for `CCC(=O)N(n1c(=O)[nH]c2cc(C(F)F)c(-c3ccnn3C(C)C)cc2c1=O)S(C)(=O)=O` with OF1 mice: 80

Reading of responders at 50 mg/kg for `CCCC(=O)N(n1c(=O)[nH]c2cc(C(F)(F)F)c(-n3cccc3)cc2c1=O)S(C)(=O)=O` with OF1 mice: 20

Reading of responders at 50 mg/kg for CCC(OC)c1cc2c(=O)n(N(C(=O)OC(C)C)S(C)(=O)=O)c(=O)[nH]c2cc1C(F)(F)F (stereo not drawn) with OF1 mice: 60

Reading of responders at 50 mg/kg for `CSCCC(=O)N(n1c(=O)[nH]c2cc(C(C)C)c(-c3ccnn3C)cc2c1=O)S(C)(=O)=O` with OF1 mice: 100
